System: HCC-827
MEASUREMENT_NOTES: relative viability (nuclei count vs DMSO), 5 days (fraction); higher = more cells survive
ASSAY_SETUP: first compound 2.53 µM
Output Fulfilled for records whose relative viability is lower than 0.7, Not fulfilled for records at or above 0.7.

Problem: For the molecule COc1nc(C)cnc1NS(=O)(=O)c1cccnc1-c1ccc(-c2nnco2)cc1 [Zibotentan] + CS(=O)(=O)CCNCc1ccc(-c2ccc3ncnc(Nc4ccc(OCc5cccc(F)c5)c(Cl)c4)c3c2)o1 [Lapatinib] (partner 2 µM) , is relative viability under 0.7?
Fulfilled

Problem: For the molecule COc1nc(C)cnc1NS(=O)(=O)c1cccnc1-c1ccc(-c2nnco2)cc1 [Zibotentan] + O=C(CCCCCCC(=O)Nc1ccccc1)NO [Vorinostat] (partner 1 µM) , is relative viability under 0.7?
Not fulfilled

Problem: For the molecule O=c1cc(-c2cccc3c2Sc2ccccc2S3)oc(N2CCOCC2)c1 + Nc1nc2[nH]cc(CCc3ccc(C(=O)N[C@@H](CCC(=O)O)C(=O)O)cc3)c2c(=O)[nH]1 [Pemetrexed] (partner 0.2 µM) , is relative viability under 0.7?
Fulfilled

Problem: For the molecule COc1nc(C)cnc1NS(=O)(=O)c1cccnc1-c1ccc(-c2nnco2)cc1 [Zibotentan] + N=C(N)NC(=N)NCCc1ccccc1 [Phenformin] (partner 250 µM) , is relative viability under 0.7?
Fulfilled

Problem: For the molecule COc1nc(C)cnc1NS(=O)(=O)c1cccnc1-c1ccc(-c2nnco2)cc1 [Zibotentan] + O=C(c1cc(Cc2n[nH]c(=O)c3ccccc23)ccc1F)N1CCN(C(=O)C2CC2)CC1 [Olaparib] (partner 8 µM) , is relative viability under 0.7?
Fulfilled

Problem: For the molecule COc1nc(C)cnc1NS(=O)(=O)c1cccnc1-c1ccc(-c2nnco2)cc1 [Zibotentan] + CCNC(=O)c1noc(-c2cc(C(C)C)c(O)cc2O)c1-c1ccc(CN2CCOCC2)cc1 [Luminespib] (partner 0.01 µM) , is relative viability under 0.7?
Not fulfilled

Problem: For the molecule O=c1cc(-c2cccc3c2Sc2ccccc2S3)oc(N2CCOCC2)c1 + O=C(CCCCCCC(=O)Nc1ccccc1)NO [Vorinostat] (partner 1 µM) , is relative viability under 0.7?
Fulfilled

Problem: For the molecule O=c1cc(-c2cccc3c2Sc2ccccc2S3)oc(N2CCOCC2)c1 + C[C@@H](Oc1cc(-c2cnn(C3CCNCC3)c2)cnc1N)c1c(Cl)ccc(F)c1Cl [Crizotinib] (partner 1 µM) , is relative viability under 0.7?
Not fulfilled

Problem: For the molecule O=c1cc(-c2cccc3c2Sc2ccccc2S3)oc(N2CCOCC2)c1 + CS(=O)(=O)N1CCN(Cc2cc3nc(-c4cccc5[nH]ncc45)nc(N4CCOCC4)c3s2)CC1 [Pictilisib] (partner 1 µM) , is relative viability under 0.7?
Not fulfilled

Problem: For the molecule O=c1cc(-c2cccc3c2Sc2ccccc2S3)oc(N2CCOCC2)c1 + CS(=O)(=O)CCNCc1ccc(-c2ccc3ncnc(Nc4ccc(OCc5cccc(F)c5)c(Cl)c4)c3c2)o1 [Lapatinib] (partner 2 µM) , is relative viability under 0.7?
Fulfilled

// provenance: the supplement of paper PMC10307832
